# EXPERIMENT_SUMMARY: inhibitors of Cryptococcus chitosan production, flow cytometry, Cibacron Brilliant Red staining (AID 1347148);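 also: compound exposure lasted three days at 37 degrees C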
# MEASUREMENT_PARAMETERS: Cryptococcus neoformans chitosan, active compounds read low; at 99.1 µM unless noted
Activity calls are given as the source filed them. No rule for the calls is given here.
I'd be grateful if you could share measured fold fluorescence for these entries.

# lookup: fold fluorescence of CC(N=C(NC#N)Nc1ccncc1)C(C)(C)C (configuration not stated) 3.41 [at 203.8 µM] (inactive)

Further, for CN1C(C(=O)Nc2ccccn2)=C(O)c2ccccc2S1(=O)=O ? 4.04 [at 150.9 µM] (inactive)

Now the same for COc1cc2nc(N3CCN(C(=O)c4ccco4)CC3)nc(N)c2cc1OC 6.39 [at 130.4 µM] (inactive)

And what about the compound CC1=C(/C=C/C(C)=C/C=C/C(C)=C/C(=O)O)C(C)(C)CCC1 ? 4.11 [at 10 µM] (inactive)

Another compound to check: CCCCNC(=O)NS(=O)(=O)c1ccc(C)cc1 3.24 [at 184.9 µM] (inactive)

Try this compound too: O=C1N=C(O)CN1/N=C/c1ccc(-c2ccc([N+](=O)[O-])cc2)o1 4.66 [at 159.1 µM] (inactive)

Can you handle CCOC(=O)C1=C(C)NC(C)=C(C(=O)OC)C1c1cccc([N+](=O)[O-])c1 (configuration not stated) next? 5.19 [at 138.7 µM] (inactive)

Repeat with CN1CCN(CCCN2c3ccccc3Sc3ccc(C(F)(F)F)cc32)CC1 10.1 [at 122.7 µM] (inactive)

Consider next the compound Oc1ccc(/C=C/c2cc(O)cc(O)c2)cc1 in the same way. 7.05 [at 219.1 µM] (inactive)

Input CCCCNc1cc(C(=O)O)cc(S(N)(=O)=O)c1Oc1ccccc1 4.08 [at 137.2 µM] (inactive)

Now the compound O=C1CCC(N2C(=O)c3ccccc3C2=O)C(=O)N1 (configuration not stated) 3.34 [at 193.6 µM] (inactive)

Another: CC[C@H](C)C(=O)O[C@H]1C[C@@H](C)C=C2C=C[C@H](C)[C@H](CC[C@@H]3C[C@@H](O)CC(=O)O3)[C@H]21 4.35 [at 123.6 µM] (inactive)

Now the same for COCCOC(=O)C1=C(C)NC(C)=C(C(=O)OC(C)C)C1c1cccc([N+](=O)[O-])c1 (configuration not stated) 6.04 [at 119.5 µM] (inactive)

Now try COc1ccc2c(c1)c(CC(=O)O)c(C)n2C(=O)c1ccc(Cl)cc1 . 4.17 [at 139.7 µM] (inactive)

And Cc1ccc(S(=O)(=O)NC(=O)NN2CCCCCC2)cc1 ? 4.87 [at 160.6 µM] (inactive)

Next compound up: Cn1cc(C2=C(c3cn(CCCSC(=N)N)c4ccccc34)C(=O)NC2=O)c2ccccc21 10.1 [at 109.3 µM] (inactive)

Same thing, different compound: NC(=O)c1ccc(-c2nc(-c3ccc4c(c3)OCO4)c(-c3ccccn3)[nH]2)cc1 18.6 [at 130.1 µM] (inactive)

###

Assign mean signal to each entry below.
# EXPERIMENT_SUMMARY: modulation of C. elegans fzo-1 (AID 1259413);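 also: fzo-1 mutant C. elegans worms in liquid wells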
# MEASUREMENT_PARAMETERS: C. elegans fzo-1 modulator screen, mean read-out; active compounds read high
# output: bare number, no unit

I have this compound here, COc1cc(NC(C)CCCN)c2ncccc2c1 (stereo unspecified) , and I need its recorded mean signal. 225

Also need CN(C)CCCN1c2ccccc2CCc2ccccc21 , thanks. 235

Also, Cc1ccc(C)c(OCCCC(C)(C)C(=O)O)c1 please. 239

Same read-out for COc1ccc([C@@H]2Sc3ccccc3N(CCN(C)C)C(=O)[C@@H]2OC(C)=O)cc1 ? 243

Record: O=C1CCC(N2C(=O)c3ccccc3C2=O)C(=O)N1 (stereo unspecified) 238

Could you do the same for Cc1ccc(S(=O)(=O)NC(=O)NN2CCCCCC2)cc1 , please? 286

###

Can you tell me insulin secretion stimulation for the items I'm about to list?
# EXPERIMENT_SUMMARY: stimulators of insulin release from INS-1E, primary screen, cell-based, 5 mM glucose, NPC library (AID 1117329); also: reference of the scale not given here
# MEASUREMENT_PARAMETERS: rat INS-1E insulin secretion, at 10 µM, active compounds read high
Calls of active or inactive are those of the source.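 How the source made its calls: active means compound raises insulin release from rat beta cells at 5 mM glucose, no numeric limit stated; inactive means the rest.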

Fill in: insulin secretion stimulation of Nc1ccc(S(=O)(=O)Nc2ccccc2)cc1 is ___ -2.7% (inactive)

N#CC1(c2ccc(F)cc2)CCC(=O)CC1 , same question. 2.2% (inactive)

Same question for O=C(O)CCC(=O)O please. -1% (inactive)

Thanks! And COc1ccc2nc(NC(=O)Nc3ccccc3)sc2c1 ? 1.3% (inactive)

Please answer likewise for NC[C@H]1O[C@H](O[C@@H]2[C@@H](O)[C@@H](O[C@H]3O[C@H](CO)[C@@H](O)[C@H](N)[C@@H]3O)[C@H](N)C[C@@H]2N)[C@H](O)[C@@H](O)[C@H]1O -0.8% (inactive)

Input Cc1oc(-c2ccccc2)nc1CCC(=O)c1ccc(CC2SC(=O)NC2=O)cc1 (stereo unspecified) 3.5% (inactive)

Record: CN[C@@H]1[C@H](O)[C@H](O[C@@H]2[C@H](O)[C@@H](O[C@H]3O[C@H]([C@@H](C)NC)CC[C@H]3N)[C@@H](N)C[C@H]2N)OC[C@]1(C)O 1.1% (inactive)

// same read-out, input: COC(=O)/C=C\C(=O)OC 2.95% (inactive)

// next record CCc1cccc2c(CCO)c[nH]c12 0.7% (inactive)

Same thing, different compound: CCC(Cc1c(I)cc(I)c(O)c1I)C(=O)O (stereo unspecified) -0.2% (inactive)

Could you do the same for Nc1nc2ncc(CNc3ccc(C(=O)N[C@@H](CCC(=O)O)C(=O)O)cc3)nc2c(=O)[nH]1 , please? 2.4% (inactive)

CCCOC(C(=O)OC1CCN(C)CC1)(c1ccccc1)c1ccccc1 , same question. 0.3% (inactive)

Same thing, different compound: CN1C(CSCC(F)(F)F)Nc2cc(Cl)c(S(N)(=O)=O)cc2S1(=O)=O (stereo unspecified) 6.7% (inactive)

One more compound: NC(N)=NN=C(/C=C/c1ccc([N+](=O)[O-])o1)/C=C/c1ccc([N+](=O)[O-])o1 6% (inactive)

What about Cc1cccc(N(C)C(=S)Oc2ccc3c(c2)CCC3)c1 ? 3.9% (inactive)

Also, CC1(C)S[C@@H]2[C@H](NC(=O)C(c3ccccc3)S(=O)(=O)O)C(=O)N2[C@H]1C(=O)O (stereo partly specified) please. -0.05% (inactive)

Okay, and CCCC(O)C(CC)CO (stereo unspecified) ? -1.8% (inactive)

Continue with CCCCC/C(C=O)=C\c1ccccc1 1% (inactive)

Would you kindly repeat that for Oc1cccc(-c2c3nc(c(-c4cccc(O)c4)c4ccc([nH]4)c(-c4cccc(O)c4)c4nc(c(-c5cccc(O)c5)c5ccc2[nH]5)CC4)C=C3)c1 ? -1.15% (inactive)

Ok, now CCN1CCCC1CN (stereo unspecified) 4.8% (inactive)

Same lookup for COc1cccc(CCc2ccccc2OCC(CN(C)C)OC(=O)CCC(=O)O)c1 (stereo unspecified) , please. 11.9% (inactive)

###

# SYSTEM: Cellular tumor antigen p53 (Homo sapiens)
# EXPERIMENT_SUMMARY: kinase inhibitors altering GFP-p53 stability in HPV16-positive cells, imaging, known kinase inhibitor set, EGFP/DsRed ratio (AID 1053116);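 also: cells exposed to compounds for 24 h at 37 °C before reading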
# MEASUREMENT_PARAMETERS: active compounds read high
RECORDED_ENDPOINT: EGFP/DsRed ratio
The reply should be a number, written without any unit.

I would be grateful if you could share the reported EGFP/DsRed ratio for CC(=O)Nc1ccc2c(c1)c(C1=C(c3cn(C)c4ccccc34)C(=O)NC1=O)cn2C . 0.557

Next entry: CC1=C(C(=O)Nc2ccc3n[nH]c(C)c3c2)C(c2ccc(C(F)(F)F)cc2)CC(=O)N1 (stereo not given) 0.0851

Lookup COc1ccc2c(C3=C(c4cn(C)c5ccccc45)C(=O)NC3=O)cn(C)c2c1 0.456

What would you report for CN(c1ccc(NC(=O)Nc2c(Cl)cccc2Cl)cc1)c1ccnc(Nc2cccc(CS(C)(=O)=O)c2)n1 ? 0.171

Please give the result for COc1cc[nH]c1C=C1C(=O)Nc2ccc(F)c(C#CC(O)C(N)C(C)O)c21 (stereo not given) too. 1.32

Request: COC(=O)c1ccc2c(c1)/C(=C\c1cc(Br)c(O)c(Br)c1)C(=O)N2 0.00779

Same question for O=[N+]([O-])c1ccc2c(c1)C(c1ccccc1Cl)=Nc1c(n[nH]c1-c1cccnc1)N2 please. 0.194

Now the compound NC(=O)c1ccc2c(-c3ccnc(NCCCO)n3)c(-c3ccc(F)cc3)nn2c1 0.0827

Next: NC(=O)c1cccc(Nc2nccc(Nc3cccc(F)c3)n2)c1 0.0178

And for Cc1c(C2=C(c3cn(C)c4ccccc34)C(=O)NC2=O)c2ccccc2n1C ? 0.392

Please do the same for CCCN1CCC(Oc2cc(Nc3nc(Nc4cccc(F)c4C(N)=O)c4cc[nH]c4n3)c(OC)cc2Cl)CC1 as well. 0.575

Next compound up: CS(=O)(=O)N1CCC(Nc2ncc(C(=O)c3c(F)cccc3F)c(N)n2)CC1 0.123

Try Cn1c(=O)c(Sc2ccccc2F)cc2cnc(NC3CCOCC3)nc21 next. 0.0407

And what about the compound CN1CCN(CCc2cccc(C(=O)c3cnn(-c4ccc(F)cc4)c3N)c2)CC1 ? 0.187

// repeat for CS(=O)(=O)CCc1cccc(C(=O)c2cnn(-c3ccc(F)cc3)c2N)c1 and report 0.152

Moving on to Cc1nc(-c2ccccc2)n2nc(NCCCN3CCOCC3)ncc12 0.201

Continue with CC(C)(O)CCc1cccc(C(=O)c2cnn(-c3ccc(F)cc3)c2N)c1 0.0442

Same read-out for Nc1c(C(=O)c2ccc(-c3cccnc3)cc2)cnn1-c1ccc(F)cc1 ? 0.226

Again, but for COc1ccccc1C(=O)c1cnc(NC2CCN(S(C)(=O)=O)CC2)nc1N 0.0796

Next entry: COc1ccc(-c2coc3ncnc(N)c23)cc1 0.227
